Measured composite z-score values are reported for all entries that follow.
- target: Torsin-1A (Homo sapiens)
- assayMethodText: TOR1A wild-type binding on microarray – cell lysate, small-molecule microarray, lysate, 635/667 nm, primary screen (AID 1149)
- conditionSet: COS7 hTOR1A-WT lysate, 635 nm fluorescence, higher = more signal
reportedProperty: composite z-score

# molecule, quantitativeReadout
rows = [
    ("CCCC[C@@H]1C[C@H]1[C@@H](NC(=O)c1ccco1)c1ccccc1", -3.91),
    ("CCN(CC)c1ccc(N2CC=CC34O[C@@H]5C=CCCOC(=O)C5[C@H]3C(=O)N(CCCO)[C@@H]4C2=O)cc1 (some centres not stated)", -0.143),
    ("C=CCOC(=O)[C@@H]1[C@H]2C(=O)O[C@H](c3ccccc3)[C@H](c3ccccc3)N2[C@H](c2ccc(OCCOC(=O)[C@H]3C[C@H]4C(=O)N[C@@H](Cc5ccccc5)C(=O)N4[C@H]3c3ccc(O)cc3)cc2)[C@@]12C(=O)Nc1ccc(I)cc12", 0.72),
    ("COCCOC(=O)N1C(=O)[C@@]2(c3cc(C#CCC(C(=O)OC)C(=O)OC)ccc31)[C@H](c1ccccc1OCCO)N1[C@H](c3ccccc3)[C@H](c3ccccc3)OC(=O)[C@H]1[C@@H]2C(=O)Nc1nc2ccccc2s1", 0.983),
    ("COc1ccc(C#Cc2ccc3c(c2)[C@]2(C(=O)N3)[C@H](c3ccc(OCCO)cc3)N3[C@H](c4ccccc4)[C@H](c4ccccc4)OC(=O)[C@H]3[C@@H]2C(=O)Nc2nc3ccccc3s2)cc1", 1.15),
    ("C=CCNC(=O)[C@@H]1[C@H]2C(=O)O[C@H](c3ccccc3)[C@H](c3ccccc3)N2[C@H](c2ccccc2OCCO)[C@@]12C(=O)N(C(=O)OCCOC)c1ccc(C#CCC(C(=O)OC)C(=O)OC)cc12", 0.612),
    ("C[N+](C)(C)CCCC[C@@H]1NC(=O)[C@H]2C[C@@H](C(=O)O)[C@@H](c3cccc(OCCO)c3)N2C1=O", 1.95),
    ("COCCCNC(=O)[C@]1(Cc2ccccc2N=[N+]=[N-])N=C(c2ccc(OCCCO)cc2)O[C@@H]1c1ccccc1CN=[N+]=[N-]", 0.673),
    ("O=C1O[C@H](c2ccccc2)[C@H](c2ccccc2)N2[C@H]1[C@@H](C(=O)Nc1nc3ccccc3s1)[C@]1(C(=O)Nc3ccc(C#CC4=CCCCC4)cc31)[C@H]2c1ccc(OCCO)cc1", 0.0608),
    ("COc1cc(NN2C(C(O)c3ccccc3)C=CC3C(=O)N(c4ccccc4)C(=O)C32)cc(OC)c1OC (configuration not stated)", 0.179),
    ("O=C1OCCC=C[C@H]2OC34C=CCN(c5ccc6ccccc6c5)C(=O)[C@H]3N(CCCCCCO)C(=O)[C@@H]4C12 (some centres not stated)", 2.39),
    ("O=C(NCC(F)(F)F)[C@@H]1c2ccccc2C(=O)N(Cc2ccccc2)[C@H]1c1ccc(CO)cc1", 0.111),
]

---

- Test system: Lefty1
- assayMethodText: Lefty1 protein binding to printed compounds – biochemical, small-molecule microarray, 635/667 nm fluorescence, primary screen (AID 1139)
- conditionSet: fluorescence 635/667, higher = more signal
Measured composite z-score values are reported for all entries that follow.

# molecule, composite z-score
rows = [
    ("COc1ccc(C(=O)Nc2cccc(CN3C(=O)[C@@]4(O[C@@H](CCn5cc([C@H](O)c6ccccc6)nn5)[C@H]([Si](C)(C)c5ccc(OC)cc5)[C@H]4C)c4ccccc43)c2)cc1", 1.01),
    ("Cn1c2c(c3ccccc31)C(=O)C1NC2C=CC1(C)C(=O)OCc1ccccc1 (configuration not stated)", -1.82),
    ("O=C(NCC(O)CO)[C@@]1(Cc2ccccc2)N=C(c2ccc(OCCCO)cc2)O[C@H]1c1ccccc1 (some centres not stated)", -0.836),
    ("O=C1O[C@H](c2ccccc2)[C@H](c2ccccc2)N2[C@H]1[C@@H](C(=O)Nc1nc3ccccc3s1)[C@]1(C(=O)Nc3ccc(C#CC4=CCCCC4)cc31)[C@H]2c1ccc(OCCO)cc1", 0.077),
    ("O=C(NCc1ccccc1)[C@@H]1c2ccccc2C(=O)N(Cc2cc(F)cc(C(F)(F)F)c2)[C@H]1c1ccc(CO)cc1", 0.61),
    ("CN(C)CCCCCCNC(=O)[C@@H]1C[C@@H]2C(=O)N[C@@H](Cc3ccccc3)C(=O)N2[C@@H]1c1cccc(OCCO)c1", 0.729),
    ("Cc1ccc(N2C(=O)c3ccccc3[C@@H](C(=O)NCC(C)C)[C@@H]2c2ccc(CO)cc2)nc1", -0.609),
]

---

Measured z-score values are reported for all entries that follow.
- assayMethodText: forskolin-driven CRE-LacZ activity in PC12 – cell-based, CRE-LacZ reporter, forskolin-stimulated, primary screen (AID 1146);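 also: PC12 cells with 6xCRE LacZ reporter stimulated by forskolin 10 µM; beta-galactosidase reporter signal reflecting CREB driven transcription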
- conditionSet: luminescence, 4.5 h, higher = more signal, called active from +8 up or from −8 down

# compound, z-score
measured = [
    ("CC1CC/C=C\\[C@H]2OC34C=CCN(Cn5nnc6ccccc65)C(=O)[C@H]3N(CCCO)C(=O)[C@@H]4C2C(=O)O1 (some centres not stated)", -0.759),
    ("CCOC(=O)C[C@H]1[C@H](OC(=O)c2cc3ccccc3oc2=O)[C@@H](NC(=O)c2ccc3ccccc3c2)c2cc(OCCCO)ccc2N1C(=O)c1ccccc1", 0.368),
    ("O=C1OCCC/C=C\\[C@H]2OC34C=CCN(CCN5CCOCC5)C(=O)[C@H]3N(CCO)C(=O)[C@@H]4C12 (some centres not stated)", 0.0806),
    ("O=C1C2C=CC(C(O)c3ccc(Br)cc3)N(n3cnnc3)C2C(=O)N1Cc1ccccc1 (configuration not stated)", 1.03),
    ("CC1CC/C=C\\[C@H]2OC34C=CCN(c5ccc6ccccc6c5)C(=O)[C@H]3N(CCCCCO)C(=O)[C@@H]4C2C(=O)O1 (some centres not stated)", -0.233),
    ("COC(=O)[C@@]1(Cc2ccc(F)cc2)[C@H]2c3cc(C(=O)N4CCCC4)n(Cc4ccc(Cl)c(C(F)(F)F)c4)c3C[C@H]2CN1C(=O)c1ccccc1", 1.49),
    ("O=C1O[C@@H](c2ccccc2)[C@@H](c2ccccc2)N2[C@@H](c3ccc(O)cc3)[C@]3(C(=O)Nc4ccc(C#CCCO)cc43)[C@@H](C(=O)O)[C@H]12", -0.31),
]

---

- target: Homeobox protein Hox-A13 (Mus musculus) (UniProt Q62424)
- Sequence (Q62424 whole entry, looked up): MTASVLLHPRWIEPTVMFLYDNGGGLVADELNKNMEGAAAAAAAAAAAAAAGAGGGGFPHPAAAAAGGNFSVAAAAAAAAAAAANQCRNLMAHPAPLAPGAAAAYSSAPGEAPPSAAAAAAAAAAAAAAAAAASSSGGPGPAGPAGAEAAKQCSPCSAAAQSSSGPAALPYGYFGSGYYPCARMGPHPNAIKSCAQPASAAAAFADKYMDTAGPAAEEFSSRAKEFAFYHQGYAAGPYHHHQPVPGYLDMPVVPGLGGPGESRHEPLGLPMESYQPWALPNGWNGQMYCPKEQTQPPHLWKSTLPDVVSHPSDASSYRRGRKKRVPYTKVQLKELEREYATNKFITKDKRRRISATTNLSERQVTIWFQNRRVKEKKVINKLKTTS
- assayMethodText: disruptors of Hoxa13 oligonucleotide interaction – biochemical, fluorescence polarization, labeled oligonucleotide, primary screen (AID 1185)
- conditionSet: Hoxa13:DNA binding, 15 min, higher = more signal, called active from +8 up or from −8 down
Use z-score to assign classes; range list: low (below -3), medium (-3 to below -0.9), high (-0.9 or more)

# compound, target, label
records = [
    ("COc1ccc([Si](C)(C)[C@@H]2[C@@H](CCO)O[C@]3(C(=O)N(Cc4ccccc4)c4ccc(N(C=O)c5ccccc5)cc43)[C@H]2C)cc1", "Homeobox protein Hox-A13 (Mus musculus) (UniProt Q62424)", "high"),
    ("CCN(CC)c1ccc(N2CC=CC34O[C@@H]5C=CCOC(=O)[C@@H]5[C@H]3C(=O)N(CCCCCO)[C@@H]4C2=O)cc1 (some centres undefined)", "Homeobox protein Hox-A13 (Mus musculus) (UniProt Q62424)", "low"),
    ("O=C(CS)NCCCCCCNC(=O)[C@H]1C[C@H]2C(=O)N3CCC[C@H]3C(=O)N2[C@H]1c1ccc(O)cc1", "Homeobox protein Hox-A13 (Mus musculus) (UniProt Q62424)", "medium"),
    ("CN(C)CCCC[C@@H]1NC(=O)[C@@H]2C[C@H](C(=O)NCCCCCN)[C@H](c3ccc(O)cc3)N2C1=O", "Homeobox protein Hox-A13 (Mus musculus) (UniProt Q62424)", "medium"),
    ("COc1ccc(C#Cc2ccc3c(c2)[C@]2(C(=O)N3)[C@H](C(=O)N3CCN(c4ncccn4)CC3)[C@H]3C(=O)O[C@H](c4ccccc4)[C@H](c4ccccc4)N3[C@@H]2c2ccc(O)cc2)cc1", "Homeobox protein Hox-A13 (Mus musculus) (UniProt Q62424)", "medium"),
    ("C=C(COC)C(=O)CC[C@@H](OC(=O)c1ccccc1-c1ccccc1C(=O)O)c1ccc(CO)o1", "Homeobox protein Hox-A13 (Mus musculus) (UniProt Q62424)", "low"),
    ("CC(=O)NCCCC[C@@H]1NC(=O)[C@@H]2C[C@H](C(=O)NCCCCCC[N+](C)(C)C)[C@H](c3cccc(OCCO)c3)N2C1=O", "Homeobox protein Hox-A13 (Mus musculus) (UniProt Q62424)", "low"),
    ("O=C(NCC(O)CO)[C@]1(CCS(=O)(=O)c2ccccc2)N=C(c2ccc(OCCCO)cc2)O[C@@H]1c1ccccc1 (some centres undefined)", "Homeobox protein Hox-A13 (Mus musculus) (UniProt Q62424)", "low"),
    ("COc1ccc([Si](C)(C)[C@@H]2[C@@H](CCO)O[C@]3(C(=O)N(Cc4ccc(N5C(=O)c6cccc7cccc5c67)cc4)c4ccccc43)[C@H]2C)cc1", "Homeobox protein Hox-A13 (Mus musculus) (UniProt Q62424)", "medium"),
    ("COCCOC(=O)N1C(=O)[C@@]2(c3ccccc31)[C@H](C(=O)N1CCCCCCC1)[C@H]1C(=O)O[C@H](c3ccccc3)[C@H](c3ccccc3)N1[C@@H]2c1ccccc1OCCO", "Homeobox protein Hox-A13 (Mus musculus) (UniProt Q62424)", "high"),
    ("Cc1ccc(N2C(=O)c3ccccc3[C@](C)(C(=O)NCCN3CCOCC3)[C@@H]2c2ccc(CO)cc2)nc1", "Homeobox protein Hox-A13 (Mus musculus) (UniProt Q62424)", "medium"),
    ("COc1c(C)cc(-c2cc3c(c(-c4ccccc4)n2)[Si](C(C)C)(C(C)C)O[C@H]3c2ccccc2)cc1C", "Homeobox protein Hox-A13 (Mus musculus) (UniProt Q62424)", "high"),
    ("C=C[C@H](C)[C@H](O)c1ccc(OCCO)cc1", "Homeobox protein Hox-A13 (Mus musculus) (UniProt Q62424)", "high"),
    ("COCCOC(=O)N1C(=O)[C@@]2(c3cc(C#CCCO)ccc31)[C@H](c1ccc(O)cc1)N1[C@H](c3ccccc3)[C@H](c3ccccc3)OC(=O)[C@H]1[C@@H]2C(=O)N1CCCCCCC1", "Homeobox protein Hox-A13 (Mus musculus) (UniProt Q62424)", "medium"),
]

The origin of these recorded values is PubChem BioAssay.
